MIC values, listed per item
Tested on: HSV type 1 (HSV-1) strain VR-3
Test: anti-HSV activity: inhibition of cytopathic effect (CPE), HSV-1
Format: cell-based
Conditions: Human alphaherpesvirus 1; HSV-1 strain VR-3, 100-320 TCID50; human embryonic lung cells; 37° C., 2 to 3 days; read-out: MIC HSV-1 (minimum concentration at which the CPE is inhibited at least by 50%)
The figure you give is taken to be in µg/mL; do not add the unit.

Known MIC results, listed for orientation:
entry-smiles: C=C1[C@H](n2cc(C)c(=O)[nH]c2=O)O[C@H](CO)[C@H]1O
MIC [µg/mL]: 1

entry-smiles: C=C1[C@H](n2ccc(N)nc2=O)O[C@H](CO)[C@H]1O
MIC [µg/mL]: 1

entry-smiles: C=C1[C@H](n2cc(I)c(=O)[nH]c2=O)O[C@H](CO)[C@H]1O
MIC [µg/mL]: 1

# lookup: HSV type 1 (HSV-1) strain VR-3 MIC, key = CC=C1[C@H](n2cc(C)c(=O)[nH]c2=O)O[C@H](CO)[C@H]1O 10

# lookup: HSV type 1 (HSV-1) strain VR-3 MIC, key = C=C1[C@H](n2cc(Cl)c(=O)[nH]c2=O)O[C@H](CO)[C@H]1O 10

# lookup: HSV type 1 (HSV-1) strain VR-3 MIC, key = C=C1[C@H](n2cc(Br)c(=O)[nH]c2=O)O[C@H](CO)[C@H]1O 3.2
